- target-or-system: T1, 006 PSMA Fab
- T1 construct: In the panning ELISA the PSMA Fab was biotinylated and captured on neutravidin coated plates; also called Anti-PSMA Fab; anti-PSMA Fab
- test: clonal phage ELISA on biotinylated PSMA Fab captured on neutravidin plates, anti-M13 HRP detection;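 also: crude clonal phage supernatants tested, before phage were added, wells were pretreated with PSMA antigen in blocking buffer or with blocking buffer only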
metric-name: Phage binding ELISA signal, Anti-PSMA Fab
Lab note: record just the number, no unit beside it.

Query block: Dear colleague, I am looking for the recorded Phage binding ELISA signal, Anti-PSMA Fab of the following binder: VEPYCKPAWMCTGF [Phage-3093]
Result block: 2.1

Query block: Dear colleague, I am looking for the recorded Phage binding ELISA signal, Anti-PSMA Fab of the following binder: TDQLCKPLWMCTGF [Phage-3089]
Result block: 2.1

Query block: Dear colleague, I am looking for the recorded Phage binding ELISA signal, Anti-PSMA Fab of the following binder: VSIMCTPLWMCEGF [Phage-3090]
Result block: 2.1

Query block: Dear colleague, I am looking for the recorded Phage binding ELISA signal, Anti-PSMA Fab of the following binder: MERMCRPAWMCTAF [Phage-3097]
Result block: 2.09

Query block: Dear colleague, I am looking for the recorded Phage binding ELISA signal, Anti-PSMA Fab of the following binder: TGAICVPEWMCMGF [Phage-3092]
Result block: 2.1

Query block: Dear colleague, I am looking for the recorded Phage binding ELISA signal, Anti-PSMA Fab of the following binder: ILPQCVPAWMCSGF [Phage-3101]
Result block: 2.09
